# Measurement target: ENPP1 on MDA-MB-231 cells (Homo sapiens (Human))
# Sequence (P22413 whole entry): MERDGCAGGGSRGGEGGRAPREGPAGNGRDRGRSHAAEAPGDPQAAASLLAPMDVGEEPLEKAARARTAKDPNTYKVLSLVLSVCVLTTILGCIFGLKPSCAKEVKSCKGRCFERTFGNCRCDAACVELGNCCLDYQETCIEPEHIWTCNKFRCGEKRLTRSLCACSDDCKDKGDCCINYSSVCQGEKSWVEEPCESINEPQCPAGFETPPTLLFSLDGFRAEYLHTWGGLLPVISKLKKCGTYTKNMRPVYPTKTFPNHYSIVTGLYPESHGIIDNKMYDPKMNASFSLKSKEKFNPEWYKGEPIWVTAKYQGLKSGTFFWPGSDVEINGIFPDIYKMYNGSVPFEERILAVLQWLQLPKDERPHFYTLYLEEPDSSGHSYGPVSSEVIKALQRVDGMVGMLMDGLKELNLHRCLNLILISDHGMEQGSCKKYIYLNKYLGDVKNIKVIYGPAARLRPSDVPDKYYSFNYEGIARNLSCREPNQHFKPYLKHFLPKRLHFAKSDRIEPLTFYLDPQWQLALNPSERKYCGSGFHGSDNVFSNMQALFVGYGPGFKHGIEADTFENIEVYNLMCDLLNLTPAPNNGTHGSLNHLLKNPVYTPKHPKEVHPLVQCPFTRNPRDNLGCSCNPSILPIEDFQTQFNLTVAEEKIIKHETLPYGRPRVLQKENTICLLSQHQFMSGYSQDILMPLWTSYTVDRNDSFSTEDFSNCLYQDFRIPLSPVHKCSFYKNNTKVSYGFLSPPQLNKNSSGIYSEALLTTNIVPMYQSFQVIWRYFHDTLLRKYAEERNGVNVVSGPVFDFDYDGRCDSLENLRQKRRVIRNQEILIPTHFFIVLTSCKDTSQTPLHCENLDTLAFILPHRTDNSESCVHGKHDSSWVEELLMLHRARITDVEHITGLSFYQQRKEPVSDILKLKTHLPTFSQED
# Assay details: Assay 3: inhibition of ENPP1 hydrolysis of AMP p-nitrophenyl ester on MDA-MB-231 cells
pKi: −log10 of the molar value.
# label = 1 if pKi >= 8 else 0

>>> class_name("COc1cccc2c(N3CC4(CCN(S(C)(=N)=O)C4)C3)c(C#N)cnc12 (stereo not drawn)")
1
>>> class_name("COc1ccc2c(OCc3cc(F)cc(S(C)(=N)=O)c3)ccnc2c1 (stereo not drawn)")
1

In plain terms: is recorded pKi at least 8 for COc1ccc2c(N3CCC(CCS(C)(=N)=O)CC3)c(C#N)cnc2c1 (stereo not drawn) ? 0

In plain terms: is recorded pKi at least 8 for CS(=N)(=O)CC1CCN(c2c(C#N)cnc3c(OCF)cccc23)CC1 (stereo not drawn) ? 1

In plain terms: is recorded pKi at least 8 for CCOc1cccc2c(N3CCC(O)(CS(C)(=N)=O)CC3)ncnc12 (stereo not drawn) ? 1

In plain terms: is recorded pKi at least 8 for CCOc1cccc2c(N3CCC(CS(C)(=N)=O)CC3)c(C#N)cnc12 (stereo not drawn) ? 1

In plain terms: is recorded pKi at least 8 for COc1cc2ncnc(N3CCC(CCS(C)(=N)=O)CC3)c2cc1OC (stereo not drawn) ? 0

In plain terms: is recorded pKi at least 8 for CCS(=N)(=O)c1ccc(Oc2ccnc3cc(OC)ccc23)cc1 (stereo not drawn) ? 0

In plain terms: is recorded pKi at least 8 for CCS(=N)(=O)N1CCC2(CCN(c3ncnc4cc(OC)c(OC)cc34)CC2)C1 (stereo not drawn) ? 1
